// reported phosphorylation enrichment for each item listed
Target: Hck (UniProt P08631)
Sequence (P08631 whole entry, looked up): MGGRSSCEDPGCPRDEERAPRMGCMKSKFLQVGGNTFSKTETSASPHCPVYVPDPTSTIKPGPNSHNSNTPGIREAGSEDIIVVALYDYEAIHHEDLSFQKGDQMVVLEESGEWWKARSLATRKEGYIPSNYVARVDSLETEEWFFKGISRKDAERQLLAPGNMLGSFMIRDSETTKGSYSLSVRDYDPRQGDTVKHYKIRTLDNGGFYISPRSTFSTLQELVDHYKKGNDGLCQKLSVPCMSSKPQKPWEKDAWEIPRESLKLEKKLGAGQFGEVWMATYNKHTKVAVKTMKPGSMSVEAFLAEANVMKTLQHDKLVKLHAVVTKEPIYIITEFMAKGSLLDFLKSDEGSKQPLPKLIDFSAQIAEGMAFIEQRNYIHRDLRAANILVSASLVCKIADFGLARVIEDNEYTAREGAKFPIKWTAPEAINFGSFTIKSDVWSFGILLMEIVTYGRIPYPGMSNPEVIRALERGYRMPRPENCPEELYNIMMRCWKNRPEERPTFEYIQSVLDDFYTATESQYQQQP
Test: phosphorylation enrichment, bacterial display (enrichment ratio); higher = better substrate or ligand; peptides without Tyr show the background
# answer = number (no unit)

The cases that follow already have their phosphorylation enrichment on record.
LSSETYVKSFT [F5_Y2149_M2148T_YF] | 0.858
TFSPPYYHRNC [HGD_Y333_R330S] | 0.531
TSESSYFKSLN [NGEF_Y288_A286S_YF] | 0.455
GLNKGYRMVVN [HINT1_Y94] | 0.436
MTEEQYIKMNR [ARFGEF2_Y797_K794E] | 0.493

Request the reported phosphorylation enrichment associated with DTVRIYDDDFF [UBA1_Y560_E557V]
0.538

Tell me the measured phosphorylation enrichment of PSDPSYEDMRE [BMPR1A_Y467] , please.
1.28

Requested field: phosphorylation enrichment. Item: YDDGKYVYVVT [RPS6KA3_Y488]
1.04

// returns reported phosphorylation enrichment for input AVLQPYIFVAT [CFTR_Y1014]
0.586

What value of phosphorylation enrichment has been reported for the following sequence? DMGAQYAAASR [ARID1B_Y483_P488R]
0.402

---

Parameter SH2 binding enrichment: see the listing below.
Molecular target: Grb2 SH2 (UniProt P62993)
Sequence (P62993 whole entry, looked up): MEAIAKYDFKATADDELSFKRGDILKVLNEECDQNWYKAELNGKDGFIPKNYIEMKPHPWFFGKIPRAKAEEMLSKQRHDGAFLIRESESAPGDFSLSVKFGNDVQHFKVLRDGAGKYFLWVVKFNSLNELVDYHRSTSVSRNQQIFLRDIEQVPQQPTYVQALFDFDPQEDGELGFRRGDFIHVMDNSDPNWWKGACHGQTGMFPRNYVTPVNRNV
Experiment: SH2 binding enrichment of the phosphorylated peptide, bacterial display (enrichment ratio); higher = better substrate or ligand; peptides without Tyr show the background
When you answer, write just the number.

Answered cases to consult:
CTTTHYNFMCN [TP53_Y234_I232T_YF] | 1.27
TESNNYIFKTL [FAM83B_Y637_YF] | 0.879
TCRPPYFHRNC [HGD_Y333_F329C_YF] | 1.45
EIVFVYVKKRS [DNAI2_Y7_YF] | 0.995
SNPAFYVLEGV [INPPL1_Y987_N982S_YF] | 0.919
NVLPEYKLQAP [KCNH2_Y388_D383N] | 0.906
QEIATYRRLPE [KRT16_Y417_L421P] | 0.855
LSSEMCVKSYT [F5_Y2149_Y2149C] | 0.665

Which SH2 binding enrichment is reported with Grb2 SH2 (UniProt P62993) for this entry: DGQVNYEGFVQ [CALM1_Y139_E141G] ?
0.659

Which measured SH2 binding enrichment belongs to SYCYRYRCAAR [SUMF1_Y344] , tested on Grb2 SH2 (UniProt P62993)?
0.717

Quick check: SH2 binding enrichment on Grb2 SH2 (UniProt P62993), item GTSLIYWTLFT [G6PC3_Y214] ?
0.746

Form entry - test system: Grb2 SH2 (UniProt P62993); read-out: SH2 binding enrichment; sequence: CTTIQYNFMCN [TP53_Y234_H233Q_YF]
2.22

Missing value: SH2 binding enrichment, Grb2 SH2 (UniProt P62993), entry PPKFFDTRKLL [CYBB_Y41_Y41D] . Fill in?
1.54

---

Examples of sequences with documented phosphorylation enrichment follow.
Target: Jak2 (UniProt O60674)
Sequence (O60674 whole entry, looked up): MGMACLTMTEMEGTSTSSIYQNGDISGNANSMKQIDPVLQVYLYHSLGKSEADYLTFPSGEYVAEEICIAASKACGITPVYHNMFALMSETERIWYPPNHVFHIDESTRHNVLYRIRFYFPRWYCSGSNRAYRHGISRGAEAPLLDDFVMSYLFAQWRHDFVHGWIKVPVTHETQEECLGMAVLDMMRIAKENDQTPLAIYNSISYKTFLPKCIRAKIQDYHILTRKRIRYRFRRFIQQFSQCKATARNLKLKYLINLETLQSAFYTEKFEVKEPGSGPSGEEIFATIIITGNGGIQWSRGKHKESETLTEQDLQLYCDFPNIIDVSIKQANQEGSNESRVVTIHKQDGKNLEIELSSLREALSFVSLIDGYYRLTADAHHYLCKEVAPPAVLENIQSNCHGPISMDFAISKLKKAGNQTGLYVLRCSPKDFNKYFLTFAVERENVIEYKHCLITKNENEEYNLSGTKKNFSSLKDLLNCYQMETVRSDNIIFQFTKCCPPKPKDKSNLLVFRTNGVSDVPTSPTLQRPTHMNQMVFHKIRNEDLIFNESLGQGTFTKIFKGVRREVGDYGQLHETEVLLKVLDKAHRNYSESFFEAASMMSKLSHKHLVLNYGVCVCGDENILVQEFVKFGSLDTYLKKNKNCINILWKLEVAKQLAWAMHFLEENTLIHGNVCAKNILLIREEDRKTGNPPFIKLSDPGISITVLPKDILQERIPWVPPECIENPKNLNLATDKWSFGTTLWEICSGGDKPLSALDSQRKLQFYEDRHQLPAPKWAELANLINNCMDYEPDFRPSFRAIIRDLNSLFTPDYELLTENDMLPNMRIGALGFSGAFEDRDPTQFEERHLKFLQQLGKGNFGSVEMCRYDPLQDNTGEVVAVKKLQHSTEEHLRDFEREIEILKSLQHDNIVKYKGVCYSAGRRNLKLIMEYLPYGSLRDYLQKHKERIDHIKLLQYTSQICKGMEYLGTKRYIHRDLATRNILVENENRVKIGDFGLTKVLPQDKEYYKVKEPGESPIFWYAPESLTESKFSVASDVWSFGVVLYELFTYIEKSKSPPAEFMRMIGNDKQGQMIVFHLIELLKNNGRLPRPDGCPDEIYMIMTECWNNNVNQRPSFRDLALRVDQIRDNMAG
Experiment: phosphorylation enrichment, bacterial display (enrichment ratio); higher = better substrate or ligand; peptides without Tyr show the background
# answer = number (no unit)

Worked examples, 5 sequences total:
CEAIEYLESKQ [BTK_Y511_M509I] | 1.33
IDPYTYTPFGS [CYP3A4_Y432_I431T] | 0.907
IEELTYIIKQD [STX5_Y137] | 1.25
EIVFVYVKKRS [DNAI2_Y7_YF] | 1.34
EKSREYDRLFE [PIK3R1_Y463_YF] | 0.935

Given SVVVPYELPEV [TP53_Y220_P222L] , state its recorded phosphorylation enrichment.
1.09

Recorded phosphorylation enrichment for PYGQWYESHYA [RPS8_Y113_R110G] , please?
1.09

If you can, please state the reported phosphorylation enrichment value of PSDPSYEDMRE [BMPR1A_Y467] .
1.45

Quick check: phosphorylation enrichment of PVGVLYEVKVY [PTS_Y128_K129E] ?
1.78

Sample QLYGPYLRIHA [BSCL2_Y213_A212P] — what was its phosphorylation enrichment?
0.974

Hello, the source for this data is the supplement of paper PMC10065799, in case you need it.
